// Ki lookup, one value per entry
# target under test: human M4 receptor (Homo sapiens (Human), UniProt P08173)
# Sequence (P08173 whole entry): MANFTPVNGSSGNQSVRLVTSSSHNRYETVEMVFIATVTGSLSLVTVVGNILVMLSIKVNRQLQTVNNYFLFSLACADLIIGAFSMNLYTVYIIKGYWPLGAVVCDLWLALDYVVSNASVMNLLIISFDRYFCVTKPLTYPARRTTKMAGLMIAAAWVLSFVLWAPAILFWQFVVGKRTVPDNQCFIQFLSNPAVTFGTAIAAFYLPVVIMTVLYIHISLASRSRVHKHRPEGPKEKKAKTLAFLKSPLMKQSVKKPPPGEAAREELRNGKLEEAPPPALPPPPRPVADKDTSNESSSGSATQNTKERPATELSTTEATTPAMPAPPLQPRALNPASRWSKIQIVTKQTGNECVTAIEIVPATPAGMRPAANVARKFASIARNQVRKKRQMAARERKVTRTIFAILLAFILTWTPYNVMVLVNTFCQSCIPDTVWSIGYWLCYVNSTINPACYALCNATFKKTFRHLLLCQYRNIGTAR
# procedure details: Radioligand (tritiated N-methylscopolamine) binding assay, M4
# measurement parameters: Ki against the M4 receptor; membranes from CHO cells expressing human M4; tritiated N-methylscopolamine 1.5 nM; read-out: Ki

Worked set:
# molecule, target under test, test result
data = [
    ("C[C@@H]1CN(c2cnc(C(F)(F)F)nc2)CCN1C(=O)NCCC1CCN(Cc2ccccc2)CC1", "human M4 receptor (Homo sapiens (Human), UniProt P08173)", "< 10 nM"),
    ("O=C(NCCC1CCN(Cc2ccccc2)CC1)N1CCN(c2ncccc2Cl)CC1", "human M4 receptor (Homo sapiens (Human), UniProt P08173)", "100 to 1000 nM"),
    ("C[C@@H]1CN(C(=O)NCCC2CCN(Cc3ccccc3)CC2)CCN1c1ccc(OC(F)(F)F)cc1", "human M4 receptor (Homo sapiens (Human), UniProt P08173)", "< 10 nM"),
]

What does the record list as Ki for CCN1CCN(C2CCN(C(=O)NCCC3CCN(Cc4ccccc4)CC3)CC2)CC1 ?
100 to 1000 nM

What do you get for C[C@@H]1CN(c2cc(F)c(OC(F)(F)F)c(F)c2)CCN1C(=O)NCCC1CCN(Cc2ccccc2)CC1 ?
< 10 nM

Param item: C[C@@H]1CN(c2cc(F)c(F)c(F)c2)CCN1C(=O)NCCC1(CO)CCN(Cc2ccccc2)CC1
10 to 100 nM

Do the same for O=C(NCCC1CCN(Cc2ccccc2)CC1)N1CCN(c2ccc(OC(F)(F)F)cc2)CC1 please
10 to 100 nM

What do you get for C[C@@H]1CN(c2cc(F)cc(C#N)c2)CCN1C(=O)NCCC1CCN(Cc2ccccc2)CC1 ?
< 10 nM

Now this one: N#Cc1cccc(N2CCC(C(=O)NCCC3CCN(Cc4ccccc4)CC3)CC2)c1
10 to 100 nM

Same thing, different compound: CC(C)N(C)C(=O)c1cnc(N2C[C@@H](C)N(C(=O)NCCC3CCN(Cc4ccccc4)CC3)[C@@H](C)C2)nc1
100 to 1000 nM
